# target: T1, human IL-25 expressed with a C-terminal myc-myc-hexahistidine tag (human)
# T1 construct: also called human IL-25-MMH; hIL-25-MMH
# T1 chain: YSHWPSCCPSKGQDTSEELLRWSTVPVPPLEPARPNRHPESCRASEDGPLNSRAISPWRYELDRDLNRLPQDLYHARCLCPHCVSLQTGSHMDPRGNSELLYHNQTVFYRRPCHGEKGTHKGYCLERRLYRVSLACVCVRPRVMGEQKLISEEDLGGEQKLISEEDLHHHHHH
# measurement protocol: SPR Biacore, captured mAb, 37°C
Reported kon values for a set of binders
Give the quantity in M⁻¹ s⁻¹, number only.

| binder | units | kon |
| --- | --- | --- |
| H4H10901P (antibody, human IgG4, V domains shown) VH: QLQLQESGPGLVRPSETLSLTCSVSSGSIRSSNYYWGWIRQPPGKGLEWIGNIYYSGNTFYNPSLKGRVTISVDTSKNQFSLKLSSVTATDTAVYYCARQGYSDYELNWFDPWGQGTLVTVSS VL: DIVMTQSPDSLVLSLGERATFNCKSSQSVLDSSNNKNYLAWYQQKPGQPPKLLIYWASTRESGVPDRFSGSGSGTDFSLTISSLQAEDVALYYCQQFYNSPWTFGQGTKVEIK | M⁻¹ s⁻¹ | 3.19e+06 |
| H4H10863P (antibody, human IgG4, V domains shown) VH: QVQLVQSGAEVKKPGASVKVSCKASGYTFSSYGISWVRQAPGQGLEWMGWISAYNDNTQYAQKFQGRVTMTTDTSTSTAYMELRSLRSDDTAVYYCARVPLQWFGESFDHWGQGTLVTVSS VL: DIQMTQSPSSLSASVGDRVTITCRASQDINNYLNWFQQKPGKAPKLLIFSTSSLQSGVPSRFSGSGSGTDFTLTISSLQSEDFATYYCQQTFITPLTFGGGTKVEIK | M⁻¹ s⁻¹ | 606000 |
| H4H10897P (antibody, human IgG4, V domains shown) VH: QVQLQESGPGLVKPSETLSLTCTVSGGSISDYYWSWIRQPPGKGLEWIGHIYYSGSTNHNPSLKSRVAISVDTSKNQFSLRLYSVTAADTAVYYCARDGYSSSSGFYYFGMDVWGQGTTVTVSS VL: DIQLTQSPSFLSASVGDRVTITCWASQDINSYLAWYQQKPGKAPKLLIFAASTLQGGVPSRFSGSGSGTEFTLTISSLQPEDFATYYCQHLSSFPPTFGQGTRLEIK | M⁻¹ s⁻¹ | 1.04e+06 |

(Q) Query: kon; subject: H4H10876P (antibody, human IgG4, V domains shown) VH: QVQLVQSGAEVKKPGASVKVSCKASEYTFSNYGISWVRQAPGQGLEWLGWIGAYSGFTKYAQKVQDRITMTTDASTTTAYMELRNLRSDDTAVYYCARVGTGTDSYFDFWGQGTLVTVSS VL: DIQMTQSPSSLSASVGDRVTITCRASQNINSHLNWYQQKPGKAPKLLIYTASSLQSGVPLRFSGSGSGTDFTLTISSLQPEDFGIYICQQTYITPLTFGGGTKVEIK
(A) 628000

(Q) Query: kon; subject: H4H10907P (antibody, human IgG4, V domains shown) VH: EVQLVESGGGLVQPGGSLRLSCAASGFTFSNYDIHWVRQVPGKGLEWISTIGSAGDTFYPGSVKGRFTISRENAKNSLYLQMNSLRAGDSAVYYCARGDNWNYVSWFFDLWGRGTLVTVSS VL: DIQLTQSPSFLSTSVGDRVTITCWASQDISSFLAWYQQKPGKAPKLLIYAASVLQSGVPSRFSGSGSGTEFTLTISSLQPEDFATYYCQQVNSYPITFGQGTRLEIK
(A) 1.19e+06

(Q) Query: kon; subject: H4H10871P (antibody, human IgG4, V domains shown) VH: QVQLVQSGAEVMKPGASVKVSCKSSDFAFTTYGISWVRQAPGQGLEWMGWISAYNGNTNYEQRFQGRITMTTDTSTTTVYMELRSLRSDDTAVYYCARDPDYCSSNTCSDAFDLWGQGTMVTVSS VL: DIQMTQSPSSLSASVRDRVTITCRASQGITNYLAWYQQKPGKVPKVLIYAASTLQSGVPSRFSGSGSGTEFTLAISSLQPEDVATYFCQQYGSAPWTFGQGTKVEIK
(A) 1.15e+06
